These entries and their values trace back to ChEMBL document CHEMBL3992547.

tested on: Candida tropicalis; experiment: Antifungal activity against Candida tropicalis 156 after 48 hrs by microdilution broth assay; format: functional; details: Candida tropicalis, 156, 48 h
measurement name: MIC80

Completed entries (count: 2):
Using known records, supply MIC80 for O=C(CN1C(=O)CSC1=S)Nc1ccccc1 500 µM

Using known records, supply MIC80 for O=C(O)CN1C(=O)/C(=C/c2ccc(O)cc2)SC1=S > 500 µM

Now for another entry.
Using known records, supply MIC80 for O=C(O)CN1C(=O)/C(=C/c2ccccn2)SC1=S ≥ 0.98 µM
